Experimental Conditions: 300 K; 101.33 kPa; Liquid; Parallel plate method
± gives the expanded uncertainty stated by the source.
Property Measured: thermal conductivity

These recorded examples may help you get a feel for the data.
>>> result("CCCCCC[n+]1ccn(C)c1.O=S(=O)([N-]S(=O)(=O)C(F)(F)F)C(F)(F)F")
"0.12 ± 0.01 W/m/K"
>>> result("CCn1cc[n+](C)c1.O=C([O-])C(F)(F)F [1-ethyl-3-methylimidazolium trifluoroacetate]")
"0.17 ± 0.01 W/m/K"
>>> result("CCn1cc[n+](C)c1.O=S(=O)([O-])C(F)(F)F [1-ethyl-3-methylimidazolium trifluoromethanesulfonate]")
"0.16 ± 0.01 W/m/K"

Find the recorded thermal conductivity belonging to CCOP(=O)([O-])OCC.CCn1cc[n+](C)c1 [1-ethyl-3-methylimidazolium diethyl phosphate] and report it.
0.19 ± 0.02 W/m/K

Would you mind doing CCn1cc[n+](C)c1.CS(=O)(=O)[O-] [1-ethyl-3-methylimidazolium methanesulfonate] as well?
0.21 ± 0.02 W/m/K

For CCn1cc[n+](C)c1.N#C[S-] [1-ethyl-3-methylimidazolium thiocyanate] then?
0.21 ± 0.02 W/m/K

###

Experimental Conditions: 375 K; 101.33 kPa; Liquid; Parallel plate method
Numbers after ± are expanded uncertainties.
Property Measured: thermal conductivity
Answer with the number, then the unit.

Guide cases for thermal conductivity, answers given:
>>> result("CCn1cc[n+](C)c1.CS(=O)(=O)[O-] [1-ethyl-3-methylimidazolium methanesulfonate]")
"0.21 ± 0.02 W/m/K"
>>> result("CCn1cc[n+](C)c1.O=S(=O)([O-])C(F)(F)F [1-ethyl-3-methylimidazolium trifluoromethanesulfonate]")
"0.16 ± 0.01 W/m/K"
>>> result("CCn1cc[n+](C)c1.N#C[S-] [1-ethyl-3-methylimidazolium thiocyanate]")
"0.21 ± 0.02 W/m/K"
>>> result("CCn1cc[n+](C)c1.O=C([O-])C(F)(F)F [1-ethyl-3-methylimidazolium trifluoroacetate]")
"0.17 ± 0.01 W/m/K"
>>> result("CCOP(=O)([O-])OCC.CCn1cc[n+](C)c1 [1-ethyl-3-methylimidazolium diethyl phosphate]")
"0.19 ± 0.02 W/m/K"

What measured thermal conductivity goes with `CCCCCC[n+]1ccn(C)c1.O=S(=O)([N-]S(=O)(=O)C(F)(F)F)C(F)(F)F` ?
0.12 ± 0.01 W/m/K
